test system: 855422-203-R-J1-PDC complex spheroids, viability; test: Anticancer human tumor 855422-203-R-J1-PDC patient-derived bladder carcinoma cell line growth inhibition [CLK]; conditions: second compound 0.1 µM; first compound 1 µM; hits give low values;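 further: spheroids exposed to drugs for seven days before readout; 100% = DMSO vehicle control wells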
Let's look at some molecules and their measured viability, T/C.
Hi! Could you send only the number? It should be in %, unit omitted.

Query block: Fill blank: measured viability, T/C of the molecule CCN1CCN(Cc2ccc(Nc3ncc(F)c(-c4cc(F)c5nc(C)n(C(C)C)c5c4)n3)nc2)CC1 + CN1CCN(c2cc(C(=O)Nc3cc4cc(-c5cnn(C)c5)ccc4cn3)ccn2)CC1 is ____.
Result block: 30.4

Query block: Please report the recorded viability, T/C for CC(CO)NC(=O)c1cc(-c2ccc(Cl)cc2)nn(-c2cnn(C)c2)c1=O (stereo not given) + CN1CCN(c2cc(C(=O)Nc3cc4cc(-c5cnn(C)c5)ccc4cn3)ccn2)CC1 .
Result block: 93.9

Query block: For CCc1c2c(nc3ccc(O)cc13)-c1cc3c(c(=O)n1C2)COC(=O)[C@]3(O)CC + CN1CCN(c2cc(C(=O)Nc3cc4cc(-c5cnn(C)c5)ccc4cn3)ccn2)CC1 , what is its reported viability, T/C?
Result block: 1.4

Query block: Given the entry Nc1ccccc1NC(=O)c1ccc(CNC(=O)OCc2cccnc2)cc1 + CNC(=O)c1ccc(Nc2nc(OC3CCCC3)c3c(-c4ccc5nc(C)oc5c4)c[nH]c3n2)c(OC)c1 , report its measured viability, T/C.
Result block: 27.7

Query block: Find the recorded viability, T/C belonging to CC1(C)CCC(CN2CCN(c3ccc(C(=O)NS(=O)(=O)c4ccc(NCC5CCOCC5)c([N+](=O)[O-])c4)c(Oc4cnc5[nH]ccc5c4)c3)CC2)=C(c2ccc(Cl)cc2)C1 + CNC(=O)c1ccc(Nc2nc(OC3CCCC3)c3c(-c4ccc5nc(C)oc5c4)c[nH]c3n2)c(OC)c1 and report it.
Result block: 75.5

Query block: Field request: viability, T/C | item: CC1COCCN1c1cc(C2(S(C)(=N)=O)CC2)nc(-c2ccnc3[nH]ccc23)n1 (stereo not given) + CNC(=O)c1ccc(Nc2nc(OC3CCCC3)c3c(-c4ccc5nc(C)oc5c4)c[nH]c3n2)c(OC)c1
Result block: 52.4

Query block: Fill in: viability, T/C of O=c1[nH]cc(F)c(=O)[nH]1 + CNC(=O)c1ccc(Nc2nc(OC3CCCC3)c3c(-c4ccc5nc(C)oc5c4)c[nH]c3n2)c(OC)c1 is ___
Result block: 40.3

Query block: Query (molecule): C#Cc1c(F)ccc2cc(O)cc(-c3ncc4c(N5CC6CCC(C5)N6)nc(OCC56CCCN5CC(F)C6)nc4c3F)c12 (stereo not given) + CN1CCN(c2cc(C(=O)Nc3cc4cc(-c5cnn(C)c5)ccc4cn3)ccn2)CC1 ; field requested: viability, T/C
Result block: 89.2

Query block: Any idea what its viability, T/C is? The molecule is COc1c(OCCCN2CCOCC2)ccc2c3n(c(=NC(=O)c4cnc(N)nc4)nc12)CCN3 + CN1CCN(c2cc(C(=O)Nc3cc4cc(-c5cnn(C)c5)ccc4cn3)ccn2)CC1
Result block: 2.43

Query block: What value of viability, T/C has been reported for the following molecule? C=CC(=O)N1CCN(c2nc(=O)n(-c3c(C)ccnc3C(C)C)c3nc(-c4c(O)cccc4F)c(F)cc23)C(C)C1 (stereo not given) + CNC(=O)c1ccc(Nc2nc(OC3CCCC3)c3c(-c4ccc5nc(C)oc5c4)c[nH]c3n2)c(OC)c1
Result block: 41.6
